measurement-notes: Oral toxicity in rats
condition-details: rat, in vivo, po
quantity: LD50 (mg/kg)

[[record]]
molecule = "CSc1nnc(C(C)(C)C)c(=O)n1N=Cc1ccccc1 [Compound 236]"
quantity = "LD50"
measure_unit = "mg/kg"
val = 1000


====

Tested on: Wheat
measurement-notes: Post-emergence test, wheat
Type: in vivo
condition-details: 2.4 Kg/hectare, three weeks
Description: Solvent: 5 parts by weight acetone 1 part by weight benzyloxypolyglycol ether […] Test plants which have a height of about 5--15 cm. are sprayed with the preparation of the given active compound until just dew moist. After three weeks, the degree of damage to the plants is determined and characterized by the values 0-5, which have the following meaning: […]
Below, each entry is listed with its recorded degree of damage, Wheat.
quantity: degree of damage, Wheat

[[record]]
compound = "COc1ccc(C=Nn2c(SC)nnc(C(C)C)c2=O)cc1 [Compound 207]"
quantity = "degree of damage, Wheat"
val = "3-4"

[[record]]
compound = "CSc1nnc(C(C)(C)C)c(=O)n1N=Cc1ccco1 [Compound 222]"
quantity = "degree of damage, Wheat"
val = "4-5"

[[record]]
compound = "CSc1nnc(C(C)C)c(=O)n1N=C(C)C [Compound 194]"
quantity = "degree of damage, Wheat"
val = "4-5"

[[record]]
compound = "CCSc1nnc(C(C)C)c(=O)n1N [Compound 148]"
quantity = "degree of damage, Wheat"
val = "4-5"

[[record]]
compound = "CSc1nnc(C2CCCCC2)c(=O)n1N=C1CCCCC1 [Compound 227]"
quantity = "degree of damage, Wheat"
val = "4-5"

[[record]]
compound = "CSc1nnc(CCC(C)C)c(=O)n1N [Compound 23]"
quantity = "degree of damage, Wheat"
val = "4-5"

[[record]]
compound = "CSc1nnc(C2CCCCC2)c(=O)n1NC(O)C(Cl)(Cl)Cl (stereo not drawn) [Compound 193]"
quantity = "degree of damage, Wheat"
val = "4-5"

[[record]]
compound = "CSc1nnc(C(C)(C)C)c(=O)n1N=C1CCCCC1 [Compound 221]"
quantity = "degree of damage, Wheat"
val = "4-5"

[[record]]
compound = "CSc1nnc(CC(C)C)c(=O)n1N [Compound 11]"
quantity = "degree of damage, Wheat"
val = "4-5"

[[record]]
compound = "CNc1nnc(C(C)(C)C)c(=O)n1N [Compound 175]"
quantity = "degree of damage, Wheat"
val = "4-5"

[[record]]
compound = "CCNc1nnc(C(C)C)c(=O)n1N [Compound 177]"
quantity = "degree of damage, Wheat"
val = "4-5"

[[record]]
compound = "CSc1nnc(C2CCCCC2)c(=O)n1N=C(C)C [Compound 224]"
quantity = "degree of damage, Wheat"
val = "4-5"


====

System: Wheat
measurement-notes: Post-emergence test, wheat
Assay type: in vivo
condition-details: 0.6 Kg/hectare, three weeks
Experimental: Solvent: 5 parts by weight acetone 1 part by weight benzyloxypolyglycol ether […] Test plants which have a height of about 5--15 cm. are sprayed with the preparation of the given active compound until just dew moist. After three weeks, the degree of damage to the plants is determined and characterized by the values 0-5, which have the following meaning: […]
Below, each entry is listed with its recorded degree of damage, Wheat.
quantity: degree of damage, Wheat

[[record]]
compound = "CSc1nnc(C(C)C)c(=O)n1N=Cc1ccc(C)cc1 [Compound 213]"
quantity = "degree of damage, Wheat"
val = "2-3"

[[record]]
compound = "CNc1nnc(C(C)(C)C)c(=O)n1N=Cc1ccc(Cl)cc1 [Compound 233]"
quantity = "degree of damage, Wheat"
val = "4-5"

[[record]]
compound = "CSc1nnc(C2CCCCC2)c(=O)n1N=Cc1ccccc1 [Compound 225]"
quantity = "degree of damage, Wheat"
val = "3-4"

[[record]]
compound = "CSc1nnc(C2CCCCO2)c(=O)n1N (centres unmarked) [Compound 163]"
quantity = "degree of damage, Wheat"
val = "3-4"

[[record]]
compound = "CSc1nnc(C2CCCCC2)c(=O)n1N=CC1CCCCC1 [Compound 228]"
quantity = "degree of damage, Wheat"
val = "4-5"

